- Experiment summary: qHTS for Inhibitors of human tyrosyl-DNA phosphodiesterase 1 (TDP1): qHTS in cells in absence of CPT; further: nearly all actives have a fitted effect of over 55% in size; further: potency means the concentration at half of the fitted maximal effect
- Condition info: DT40 Tdp1-/- hTDP1 cells, no CPT, ATP luminescence, 48 h
Among all 420,000 compounds or so, about 64,000 (15%) were called active. About 27% were inconclusive and are not listed. The list is a sample of the results.
Reported endpoint: Potency

Below, each entry is followed by its recorded Potency result.
O=C(CCC1CCCC1)N=C1SC2CS(=O)(=O)CC2N1Cc1ccccc1 (configuration not stated); inactive
COc1cccc(N2CC(NC(=O)/C=C\c3ccccc3)CC2=O)c1 (configuration not stated); inactive
O=C(NCc1ccc(Cl)c(Cl)c1)c1cccnc1; inactive
CCOCC(=O)Nc1cc(OC)c(Cl)cc1OC; inactive
COc1cc(NC(=O)CSC(=S)N2CCCC2)c(OC)cc1Cl; 14.6 µM (active)
CC(=O)NCCNC(=O)c1cc(-c2cccc3ccccc23)nc2ccccc12; inactive
COc1cc(Cl)c(C)cc1NC(=O)CSc1nnc(CN2CCCC2)o1; inactive
O=C(Nc1cccnc1)c1cc(Cl)ccc1Cl; inactive
CCOC(=O)C1CSC(CC(=O)Nc2ccc(OCC)cc2)C(=O)N1 (configuration not stated); inactive
O=C(/C=C/c1ccc(Cl)cc1Cl)c1cccnc1; 14.6 µM (active)

// query Value lookup for Potency; key = CN(C)CCNC(=O)Nc1cccc(Cl)c1Cl
// result inactive

// query Now give it for CCc1c(SCCC(=O)O)nc2ccccc2c1C too.
// result inactive

Entry source: PubChem BioAssay AID686978
